// provenance: the supplement of paper PMC4862054

Catalogue of compounds with associated normalised response
# Test system: DU-4475
# assay remarks: normalised response (% of control), CellTiter-Glo; higher = more viable cells (100 = DMSO, 0 = benzethonium chloride kill control)
# measurement parameters: incubation time: 72 h
The answer is to be given in %; state only the numeric part.

Entry CCn1c(-c2nonc2N)nc2cnc(Oc3cccc(NC(=O)c4ccc(OCCN5CCOCC5)cc4)c3)cc21 (100 nM) needs its normalised response filled in; supply it.
95.4

###

# Tested on: BT-549
# assay remarks: drug sensitivity score (DSS), CellTiter-Glo (DSS (AUC-based score)); higher = stronger drug effect (viability inhibition or cytotoxicity); extreme values may be limits of the assay
# measurement parameters: incubation time: 72 h
Catalogue of molecules with associated drug sensitivity score
Give the figure by itself; no unit, no explanation.

molecule: NC(=O)c1ccc(I)c([N+](=O)[O-])c1
measured number: 0

Entry CNC(=O)c1ccc(N2C(=S)N(c3ccc(C#N)c(C(F)(F)F)c3)C(=O)C2(C)C)cc1F [Enzalutamide] needs its drug sensitivity score filled in; supply it.
0

Entry CNC(=O)c1cccc(-c2ccc3c(N4CCOC[C@@H]4C)nc(N4CCOC[C@@H]4C)nc3n2)c1 needs its drug sensitivity score filled in; supply it.
15.3

Entry CN(C)c1nc(N(C)C)nc(N(C)C)n1 needs its drug sensitivity score filled in; supply it.
0

Entry O=C(Nc1ccncc1)C(=O)c1cn(Cc2ccc(Cl)cc2)c2ccccc12 needs its drug sensitivity score filled in; supply it.
12.6

Entry COc1cc(OC2CCN(C)CC2)ccc1Nc1ncc2c(n1)n(C1CCCC1)c(=O)n2C needs its drug sensitivity score filled in; supply it.
0

Entry CNC(=O)c1ccc(N2C(=S)N(c3ccc(C#N)c(C(F)(F)F)c3)C(=O)C23CCC3)cc1F needs its drug sensitivity score filled in; supply it.
0

Entry COc1cc2/c(=N/c3ccc(Br)cc3F)nc[nH]c2cc1OCC1CCN(C)CC1 needs its drug sensitivity score filled in; supply it.
0

Entry Nc1cc(C(F)(F)F)c(-c2cc(N3CCOCC3)nc(N3CCOCC3)n2)cn1 needs its drug sensitivity score filled in; supply it.
7.05

###

# Tested on: DU-4475
# assay remarks: normalised response (% of control), CellTox Green; higher = less cell death (100 = DMSO, 0 = benzethonium chloride kill control)
# measurement parameters: incubation time: 72 h
Catalogue of compounds with associated normalised response
Answer shape: numeric part, then the unit.

Example cases with answers are listed next.
compound: c1ccc2c(CCNc3ccc(Nc4ccncc4)cc3)c[nH]c2c1 [Serdemetan] (10000 nM)
normalised response: 68.3%
--
compound: CN(C)CCOc1ccc(/C(=C(/CCCl)c2ccccc2)c2ccccc2)cc1 [Toremifene] (10000 nM)
normalised response: 94.6%
--
compound: Cc1ccc(NC(=O)c2ccc(CN3CCN(C)CC3)cc2)cc1Nc1nc(-c2cccnc2)cs1 [Masitinib] (100 nM)
normalised response: 99.3%
--
compound: CN(C)c1nc(N(C)C)nc(N(C)C)n1 [Altretamine] (100 nM)
normalised response: 104%
--
compound: COc1cc2ncnc(Nc3ccc(F)c(Cl)c3)c2cc1OCCCN1CCOCC1 [Gefitinib] (1000 nM)
normalised response: 101%

Entry CNC(=O)c1cc(Oc2ccc(NC(=O)Nc3ccc(Cl)c(C(F)(F)F)c3)c(F)c2)ccn1 [Regorafenib] (100 nM) needs its normalised response filled in; supply it.
103%
